Target: T1, human TL1A (hTL1A) antigen (human, UniProt O95150 58-251, limits assumed)
T1 construct: also called TNFSF15
T1 sequence (looked up): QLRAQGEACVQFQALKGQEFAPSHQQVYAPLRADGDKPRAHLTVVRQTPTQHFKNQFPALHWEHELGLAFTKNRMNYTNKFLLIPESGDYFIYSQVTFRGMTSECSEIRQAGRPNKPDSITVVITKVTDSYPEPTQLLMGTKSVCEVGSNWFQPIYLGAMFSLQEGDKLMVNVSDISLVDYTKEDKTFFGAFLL
Assay: SPR, multi-cycle, antibody as ligand, TL1A analyte
Measured property: kon (M⁻¹ s⁻¹)
Return type: number; implicit unit M⁻¹ s⁻¹.

Binder	kon (M⁻¹ s⁻¹)
AS12823 (antibody, V domains shown, Humanized 5C3D11 clone from a phage display library; also called 14) VH: QVQLVQSGAEVKKPGASVKLSCKASGFDICDTYMHWVRQRPGQGLEWIGRIDPASGHTKYDPKFQVRATMTTDTSTSTVYLELSSLRSEDTAVYYCARSGGLPDVWGQGTTVTVSS VL: EIVLTQSPGTLSLSPGERATMSCRASSSVSYMYWYQQKPGQAPRPWIYATSNLASGIPDRFSGSGSGTDFTLTISRVEPEDFAVYYCQQWSGNPRTFGGGTKLEIK	1.11e+06

Given item AS12816 (antibody, V domains shown, Humanized 5C3D11 clone from a phage display library) VH: QVQLVQSGAEVKKPGASVKVSCKASGFDICDTYMHWVKQRPGQGLEWIGRIDPASGHTKYDPKFQVRATITRDTSTSTAYLELSSLRSEDTAVYYCSRSGGLPDVWGQGTTVTVSS VL: EIVLTQSPGTLSASPGERVTLSCRASSSVSYMYWYQQKPGQAPRPWIYATSNLASGVPDRFSGSGSGTDFTLTISRLEPEDFAVYYCQQWSGNPRTFGGGTKLEIK , the value recorded as its kon is 819000

Given item AS12824 (antibody, V domains shown, Humanized 5C3D11 clone from a phage display library; also called 15) VH: QVQLVQSGAEVKKPGASVKVSCKASGFDICDTYMHWVKQRPGQGLEWIGRIDPASGHTKYDPKFQVRATITTDTSTSTAYLELSSLRSEDTAVYYCARSGGLPDVWGQGTTVTVSS VL: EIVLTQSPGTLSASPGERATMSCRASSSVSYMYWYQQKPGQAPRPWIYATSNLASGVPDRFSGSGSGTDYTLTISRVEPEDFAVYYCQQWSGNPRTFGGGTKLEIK , the value recorded as its kon is 1.07e+06

Given item AS12819 (antibody, V domains shown, Humanized 5C3D11 clone from a phage display library; also called 10) VH: QVQLVQSGAEVVKPGASVKLSCKASGFDICDTYMHWVRQRPGQGLEWMGRIDPASGHTKYDPKFQVRVTMTTDTSTSTVYLELSSLRSEDTAVYYCARSGGLPDVWGQGTTVTVSS VL: EIVLTQSPGTLSLSPGERVTMSCRASSSVSYMYWYQQKPGQAPRPWIYATSNLASGVPDRFSGSGSGTDFTLTISRVEPEDFAVYYCQQWSGNPRTFGGGTKVEIK , the value recorded as its kon is 946000
